Entry source: patent US9249096B2

assay.system: endothelial lipase (EL) (Homo sapiens (Human), UniProt Q9Y5X9)
Sequence (Q9Y5X9 21-500): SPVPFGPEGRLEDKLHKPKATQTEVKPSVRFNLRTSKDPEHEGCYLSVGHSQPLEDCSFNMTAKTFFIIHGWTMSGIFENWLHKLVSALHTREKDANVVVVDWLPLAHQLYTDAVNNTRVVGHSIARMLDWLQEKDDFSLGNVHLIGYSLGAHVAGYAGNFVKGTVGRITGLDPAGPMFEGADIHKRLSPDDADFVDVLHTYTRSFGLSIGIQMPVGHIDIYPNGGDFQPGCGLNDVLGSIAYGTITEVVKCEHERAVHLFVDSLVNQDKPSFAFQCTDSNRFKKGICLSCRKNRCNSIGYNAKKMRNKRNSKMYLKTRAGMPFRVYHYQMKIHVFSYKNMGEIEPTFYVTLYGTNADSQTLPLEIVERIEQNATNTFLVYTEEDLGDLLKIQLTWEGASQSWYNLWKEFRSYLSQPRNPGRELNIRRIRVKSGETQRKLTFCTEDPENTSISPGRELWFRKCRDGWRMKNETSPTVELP
pIC50: −log10 of the molar value.
We use 6 as the dividing line for pIC50: on or above the line is Y, below is N.

molecule	group
CC(C)CCN1CC(C(=O)NCCCc2ccc(Cl)c(Cl)c2)=C(O)C1=O [Example 45]	Y
CN1C(=O)C(O)=C(C(=O)NCCCc2ccc(Cl)c(Cl)c2)C1C(C)(C)C (centres unmarked) [Example 17]	Y
O=C(NCCCc1ccc(Cl)c(Cl)c1)C1=C(O)C(=O)N(CCc2ccccc2Cl)C1 [Example 53]	Y
CN1CC(C(=O)NC(CCc2ccc(Cl)c(Cl)c2)c2ccccc2)=C(O)C1=O (centres unmarked) [Example 235]	N
CN1C(=O)C(O)=C(C(=O)NCCCc2ccc(Cl)c(Cl)c2)C1CCc1ccccc1 (single isomer, unassigned; isomer a) [Example 195]	Y

###

pIC50: −log10 of the molar value.
A short record of pIC50 observed with endothelial lipase (EL) (Homo sapiens (Human), UniProt Q9Y5X9) follows.

compound	pIC50
CN1CC(C(=O)NCCc2ccccc2)=C(O)C1=O	5.53
CN1CC(C(=O)NCCCc2c(Cl)cccc2Cl)=C(O)C1=O	6.42
CCCCN1CC(C(=O)NCCCc2ccc(Cl)c(Cl)c2)=C(O)C1=O	8.49
CCN1CC(C(=O)NCCCc2cccc(OC)n2)=C(O)C1=O	5.46
Cc1ccc(CC2C(C(=O)NCCCc3ccc(Cl)c(Cl)c3)=C(O)C(=O)N2C)cc1 (stereo not drawn)	6.23
CC(C)C(CCc1ccc(Cl)c(Cl)c1)NC(=O)C1=C(O)C(=O)N(C)C1 (stereo not drawn)	5.02
CC(CCc1ccc(Cl)c(Cl)c1)NC(=O)C1=C(O)C(=O)N(C)C1 (stereo not drawn)	5.34
CC(C)CN1CC(C(=O)NCCCc2ccc(Cl)c(Cl)c2)=C(O)C1=O	8.53
O=C(NCCCc1ccc(Cl)c(Cl)c1)C1=C(O)C(=O)N(Cc2cccc(F)c2)C1	8.22
